- experiment: chemical genetic growth profiling, strain panel (AID 1159580);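 further: tested at 20 µM; growth read once vehicle control cultures reached saturation at 30 °C; 1 = growth at the plate median or of vehicle wells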
- run-conditions: S. cerevisiae deletion strains, growth OD, locus YKL160W, strain elf1, stronger effect = lower value
In all, about 5,500 compounds went through this assay and about 2,000 (36%) were called active. Another 18% or so got no clear call; they are omitted. The list shows a part of the results.
Lab note: cut-off is 1. Strictly less in normalized growth is y. Exactly 1 or more is n.

Query: Please state whether normalized growth is below 1 for CCS(=O)(=O)CCn1c([N+](=O)[O-])cnc1C
Reply: n

# ---- query compound ----
Query: Is it true that normalized growth reported for CC(C)=CCc1c(O)cc2occ(-c3ccc4c(c3)OCO4)c(=O)c2c1O is less than 1?
Reply: y

---

- experiment: chemical genetic growth profiling, strain panel (AID 1159580)
- run-conditions: S. cerevisiae deletion strains, growth OD, locus YGL240W, strain doc1
In all, about 5,500 compounds went through this assay and about 2,000 (36%) were called active. About 18% were inconclusive and are not listed. Cut-off read from the data, not from the text of the source: active = normalized growth mostly below about 0.91 (no sharp cut-off); inconclusive = no clear call, values can overlap the other calls; inactive = mostly above about 0.92. Some of the results follow.
Response enum: active, inactive

See these solved cases before continuing.
Query: What is the recorded call for this molecule in the test? COc1cc2ccc(=O)oc2c2ccoc12
Reply: active

Query: Repeat with O=C(CCCN1CC=C(n2c(=O)[nH]c3ccccc32)CC1)c1ccc(F)cc1
Reply: inactive

---
Query: Please share the test call associated with COC(=O)C1=CO[C@@H](O[C@@H]2O[C@H](CO)[C@@H](O)[C@H](O)[C@H]2O)[C@@H]2[C@@H](C)[C@@H](O)C[C@H]12 .
Reply: inactive

Query: Another molecule to check: COP(=S)(OC)SCn1nnc2ccccc2c1=O
Reply: inactive

Query: Could you do the same for COc1c2occc2cc2ccc(=O)oc12 , please?
Reply: inactive

Query: Please do the same for Cc1cc(O)c2c(c1O)C(=O)c1c(O)cc(C)c(O)c1C2=O as well.
Reply: inactive

Query: Here is the next molecule: c1coc(CNc2ncnc3nc[nH]c23)c1
Reply: inactive

Query: How about O=C1c2ccccc2C(=O)c2c(O)c(O)cc(O)c21 ?
Reply: active

Query: Continue with N#C/C(=C\c1ccc(O)cc1)C(=O)O
Reply: inactive

Query: Also Nc1ncnc2nc[nH]c12 ?
Reply: inactive

Query: Then this molecule: CC1(C)S[C@@H]2[C@H](NC(=O)COc3ccccc3)C(=O)N2[C@H]1C(=O)O
Reply: inactive

Query: Try this molecule next: CSCCC(NC=O)C(=O)NC(CC(C)C)C(=O)NC(Cc1ccccc1)C(=O)O (stereo not given)
Reply: inactive

Query: Also CNC(=O)CSP(=S)(OC)OC , if possible.
Reply: inactive

Query: Next entry: CC(C)CCCC(C)[C@H]1CCC2C3CC[C@H]4CC(=O)CC[C@]4(C)C3CC[C@@]21C (stereo not given in full)
Reply: inactive

Query: Next up: CC(C(=O)O)c1ccc(N2Cc3ccccc3C2=O)cc1 (stereo not given)
Reply: inactive

---

normalized growth reference
- experiment: chemical genetic growth profiling, strain panel (AID 1159580)
- run-conditions: S. cerevisiae deletion strains, growth OD, locus YJL187C, strain SWE1, stronger effect = lower value
Screen size: about 5,500 compounds; about 2,000 (36%) were called active. About 18% were inconclusive and are not listed. The list shows a part of the results.
Enter the number alone.

Previously resolved entries follow.
Query: Consider the compound c1ccc2c(c1)-c1cccc3cccc-2c13 and give its measured normalized growth.
Reply: 0.939

Query: What do we get for FC(F)(F)COCC(F)(F)F ?
Reply: 1.02

---
Query: Would you mind telling me what normalized growth value was observed for O=c1[nH]cnc2nc[nH]c12 ?
Reply: 1.02

Query: Next compound: Fc1ccc(C(c2ccc(F)cc2)N2CCN(C/C=C/c3ccccc3)CC2)cc1
Reply: 0.231

Query: Similarly, c1ccc2c(c1)[nH]c1cnccc12 ?
Reply: 0.995

Query: Next record, please: Cc1nccc2c1[nH]c1ccccc12
Reply: 0.962

Query: Next compound: CCOC(=O)CC1=Nn2c(nnc2-c2cc(Cl)cc(Cl)c2)SC1
Reply: 0.913

Query: Another compound to look at: COC(=O)c1ccccc1-n1cccc1C(=O)OC
Reply: 0.996

Query: Query CN1CCN(C(c2ccccc2)c2ccccc2)CC1 next
Reply: 0.994

Query: Record: CCCCCN=C(N)N/N=C\c1c[nH]c2ccc(OC)cc12
Reply: 1

Query: # iterate: Cc1c(-n2cccc2)cc2c(c1[N+](=O)[O-])C(C)(C)CC2(C)C
Reply: 1.02

Query: Param item: CC(=O)c1ccc2c(c1)N(CCCN(C)C)c1ccccc1S2
Reply: 0.998

Query: Also check O=S(=O)(O)c1cccc2cccc(Cl)c12
Reply: 1

---

- experiment: chemical genetic growth profiling, strain panel (AID 1159580);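 further: tested at 20 µM; growth read once vehicle control cultures reached saturation at 30 °C; 1 = growth at the plate median or of vehicle wells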
- run-conditions: S. cerevisiae deletion strains, growth OD, locus YPL256C, strain CLN2, stronger effect = lower value
Out of some 5,500 compounds screened, about 2,000 (36%) were called active. Inconclusive results (about 18%) are left out. The list shows a part of the results.
// thresholds for normalized growth classes: lower level: < 0.9; middle level: ≥ 0.9 and < 1; upper level: ≥ 1

Solved cases below.
Query: Band for the recorded normalized growth of CSc1sc(-c2ccn[nH]2)c(-c2ccccc2)c1C#N ?
Reply: upper level

Query: Please give the result for O=S(=O)(Nc1ccc(-n2nc(C(F)(F)F)cc2-c2cccs2)cc1)c1ccc(F)cc1 too.
Reply: middle level

Query: Okay, and O=C(Nc1ccc(OC(F)(F)F)cc1)Nc1cncc(C(F)(F)F)c1 ?
Reply: lower level

***
Query: Given CC(C)=CCOc1c2occc2cc2ccc(=O)oc12 , name the class its normalized growth places it in.
Reply: middle level

Query: Continue with CCCCCc1ccc(-c2nc(SCC(C)=O)n[nH]2)cc1
Reply: lower level

Query: Likewise for O=C1CSC(=Nc2cc(Cl)cc(Cl)c2)N1Cc1cccnc1 ?
Reply: upper level

Query: What would you report for CCCC(=O)Nc1ncnc2c1ncn2C1O[C@@H]2COP(=O)(O)O[C@H]2[C@H]1OC(=O)CCC (stereo not given in full) ?
Reply: upper level

Query: Same lookup for COc1ccc(-c2cc(NS(=O)(=O)c3cccc(F)c3)n(-c3ccc(Cl)c(Cl)c3)n2)cc1 , please.
Reply: lower level

Query: Now this one: CC(C)N=c1cc2n(-c3ccc(Cl)cc3)c3ccccc3nc-2cc1Nc1ccc(Cl)cc1
Reply: lower level

---

- experiment: chemical genetic growth profiling, strain panel (AID 1159580);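 further: tested at 20 µM; growth read once vehicle control cultures reached saturation at 30 °C; 1 = growth at the plate median or of vehicle wells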
- run-conditions: S. cerevisiae deletion strains, growth OD, locus YGL173C, strain kem1, stronger effect = lower value
The whole screen tested about 5,500 compounds, of which about 2,000 (36%) were called active. Not shown: some 18% with an inconclusive outcome. The list shows a part of the results.
observable: normalized growth
Could you respond with only the numeric value?

Query: What value of normalized growth has been reported for the following compound? COc1cc(OC)c2c(c1Cl)OC1(C2=O)C(O)=CC(=O)CC1C (centres undefined)
Reply: 1.01

Query: Next record, please: O=C1c2ccccc2-c2cccc3cccc1c23
Reply: 0.853

Query: What do you get for NCCS ?
Reply: 0.986

Query: Ok, now Cc1c(N(C)CS(=O)(=O)O)c(=O)n(-c2ccccc2)n1C
Reply: 1.02

Query: Same read-out for C[C@]12CCC3C(CC[C@H]4CC(=O)CC[C@]34C)C1CCC2=O (some centres undefined) ?
Reply: 0.821

Query: Similarly, CN1CCN(C(c2ccccc2)c2ccccc2)CC1 ?
Reply: 0.979

Query: Repeat for the following compound: O=c1[nH]c2ccccc2n1CCCN1CCC(n2c(=O)[nH]c3cc(Cl)ccc32)CC1
Reply: 0.964

---

- experiment: chemical genetic growth profiling, strain panel (AID 1159580);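 further: tested at 20 µM; growth read once vehicle control cultures reached saturation at 30 °C; 1 = growth at the plate median or of vehicle wells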
- run-conditions: S. cerevisiae deletion strains, growth OD, locus YOL147C, strain pex11, stronger effect = lower value
Screen size: about 5,500 compounds; about 2,000 (36%) were called active. Inconclusive results (about 18%) are left out. This is one part of the list.
observable: normalized growth

Query: Please report the recorded normalized growth for COc1ccc2c(=O)c(-c3cc4c(cc3OC)OCO4)coc2c1 .
Reply: 1 (inactive)

Query: Input C[C@]12CCC3C(CC[C@H]4C[C@@H](O)CC[C@]34C)C1CCC2=O (stereo not given in full)
Reply: 0.803 (active)

Query: Input COc1ccc2c(=O)c(CC(=O)O)coc2c1
Reply: 0.991 (inactive)

Continuing:
Query: Which normalized growth reading was recorded for the compound COc1cc2c(cc1-c1coc3c4c(c(OC)cc3c1=O)OC(C)(C)C=C4)OCO2 ?
Reply: 0.996 (inactive)

Query: Item: O=c1cc(-c2ccc(O)cc2)oc2cc(O[C@@H]3O[C@H](CO)[C@@H](O)[C@H](O)[C@H]3O[C@@H]3OC[C@](O)(CO)[C@H]3O)cc(O)c12
Reply: 0.996 (inactive)

Each recorded value in this set is attributed to PubChem BioAssay AID1159580.
